Molecular target: T1, Extracellular domain of cyno PD1 (cPD1-ECD) (Macaca fascicularis (cynomolgus))
T1 construct: Expressed with a hexahistidine tag or as Fc fusion; also called cynoPD1-ECD; cynoPD-1-ECD
T1 chain: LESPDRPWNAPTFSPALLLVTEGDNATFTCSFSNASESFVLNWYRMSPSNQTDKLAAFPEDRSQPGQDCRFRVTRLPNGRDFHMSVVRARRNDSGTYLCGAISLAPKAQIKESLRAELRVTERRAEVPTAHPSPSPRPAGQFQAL
Test: SPR ProteOn, captured mAb, cynoPD1-ECD analyte;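 note: ProteOn XPR36 SPR with antibodies held by anti-IgG Fc on a GLC chip, kinetic constants obtained by fitting to a Langmuir 1:1 binding model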
# pKd values compiled below
# pKd is unitless: minus log10 of the molar concentration; print number only

Look over these answered cases.
1) PD1B196 (antibody, V domains shown, also called PD1H170/PD1L148) VH: QVQLVQSGAEVKKPGSSVKVSCKASGGTFSSYAISWVRQAPGQGLEWMGGIIPIFDTANYAQKFQGRVTITADESTSTAYMELSSLRSEDTAVYYCARPGLAAAYDTGSLDYWGQGTLVTVSS VL: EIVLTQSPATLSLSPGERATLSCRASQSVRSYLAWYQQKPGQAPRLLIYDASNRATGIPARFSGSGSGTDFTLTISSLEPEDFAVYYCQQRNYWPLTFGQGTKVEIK | 9.24
2) PD1B197 (antibody, V domains shown, also called PD1H163/PD1L185) VH: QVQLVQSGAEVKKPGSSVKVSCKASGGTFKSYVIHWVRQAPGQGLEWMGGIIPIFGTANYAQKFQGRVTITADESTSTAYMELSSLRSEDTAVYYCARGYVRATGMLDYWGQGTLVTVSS VL: EIVLTQSPATLSLSPGERATLSCRASQSVSNYLAWYQQKPGQAPRLLIYDASNRATGIPARFSGSGSGTDFTLTISSLEPEDFAVYYCQQRAYWPLTFGQGTKVEIK | 8.34

Would you mind telling me what pKd value was observed for PD1B199 (antibody, V domains shown, also called PD1H164/PD1L86) VH: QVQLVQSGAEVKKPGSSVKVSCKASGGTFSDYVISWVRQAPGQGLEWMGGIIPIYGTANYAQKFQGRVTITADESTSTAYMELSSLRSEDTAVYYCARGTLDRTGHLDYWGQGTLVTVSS VL: EIVLTQSPATLSLSPGERATLSCRASQSVSSYLAWYQQKPGQAPRLLIHDASTRATGIPARFSGSGSGTDFTLTISSLEPEDFAVYYCQQRNYWPLTFGQGTKVEIK ?
9.28
